All figures here come from patent US20240327423A1.

experiment: Liver microsomal stability test, human; format: in vitro ADME; settings: Human liver microsomes, 60 min
So basically: Remaining, (T = 60 min) at 30% or higher? That is 1.0. Lower than 30%? That is 0.0.

Record excerpt, results attached:
INSERT INTO assay_data (compound, qualitative_label) VALUES
  ('Cc1cc(-c2ccccc2F)c(C(=O)C(=O)Nc2ccc3c(c2)C[C@H]2CN(c4ncc(F)cn4)CCN32)n1C [Example 38]', 0.0),
  ('Cc1cc(-c2ccccc2)c(C(=O)C(=O)Nc2cc(F)c3c(c2)OCC2CN(c4ncc(F)cn4)CCN32)n1C (centres unmarked) [Example 4]', 0.0),
  ('Cc1cc(-c2ccccc2)c(C(=O)C(=O)Nc2ccc3c(c2)OCC2CN(c4ncc(C(F)(F)F)cn4)CCN32)n1C (centres unmarked) [Example 9]', 0.0),
  ('Cc1cc(-c2ccccc2)c(C(=O)C(=O)Nc2ccc(N3CCN(c4ncc(F)cn4)CC3)cc2)n1C [Example F901318, reference compound]', 0.0);

[Q] # check: Remaining, (T = 60 min) of Cc1cc(-c2ccccc2)c(C(=O)C(=O)Nc2ccc3c(c2)CC2CN(c4ncc(F)cn4)CCN32)n1C (centres unmarked) [Example 1] is greater than or equal to 30%
[A] 1.0

###

test: Liver microsomal stability test, mouse; assay type: in vitro ADME; conditions: Mouse liver microsomes, 60 min
# strict inequality: Remaining, (T = 60 min) < 30% yields Satisfied, everything else yields Not satisfied

INSERT INTO measurements (compound, qualitative_label) VALUES
  ('Cc1cc(-c2ccccc2)c(C(=O)C(=O)Nc2ccc3c(c2)CC2CN(c4ncc(F)cn4)CCN32)n1C (stereo not drawn)', 'Not satisfied'),
  ('Cc1cc(-c2ccccc2)c(C(=O)C(=O)Nc2ccc3c(c2)OCC2CN(c4ncc(C(F)(F)F)cn4)CCN32)n1C (stereo not drawn)', 'Satisfied'),
  ('Cc1cc(-c2ccccc2)c(C(=O)C(=O)Nc2ccc3c(c2)C[C@H]2CN(c4ncc(F)cn4)CCN32)n1C', 'Not satisfied'),
  ('Cc1cc(-c2ccccc2)c(C(=O)C(=O)Nc2ccc(N3CCN(c4ncc(F)cn4)CC3)cc2)n1C [Example F901318, reference compound]', 'Satisfied'),
  ('Cc1cc(-c2ccccc2)c(C(=O)C(=O)Nc2cc(F)c3c(c2)OCC2CN(c4ncc(F)cn4)CCN32)n1C (stereo not drawn)', 'Satisfied');

Pending compound:
[Q] Hello, I'm reviewing records and need to know if Remaining, (T = 60 min) of `Cc1cc(-c2ccccc2)c(C(=O)C(=O)Nc2ccc3c(c2)C[C@@H]2CN(c4ncc(F)cn4)CCN32)n1C` is below 30%. Could you check?
[A] Not satisfied

###

test: Pharmacokinetic test in SD rats, single oral administration; type: in vivo; details: SD, rat, plasma, po, 10 mg/kg, single oral administration 10 mg/kg, test compound mixed with F901318, plasma, read-out: T½ (converted)
half-life below 300 min gives no; half-life at or above it gives yes.

INSERT INTO assay_data (compound, qualitative_label) VALUES
  ('Cc1cc(-c2ccccc2)c(C(=O)C(=O)Nc2ccc3c(c2)OCC2CN(c4ncc(F)cn4)CCN32)n1C (centres unmarked)', 'yes');

[Q] # bool: half-life of `Cc1cc(-c2ccccc2)c(C(=O)C(=O)Nc2cc(F)c3c(c2)OC[C@H]2CN(c4ncc(F)cn4)CCN32)n1C` >= 300 min
[A] no

[Q] Further, for `Cc1cc(-c2ccccc2)c(C(=O)C(=O)Nc2ccc3c(c2)C[C@H]2CN(c4ncc(F)cn4)CCN32)n1C` ?
[A] yes

[Q] Try this compound too: Cc1cc(-c2ccccc2)c(C(=O)C(=O)Nc2ccc3c(c2)CC2CN(c4ncc(F)cn4)CCN32)n1C (centres unmarked)
[A] yes
